Reference for the values: the supplement of paper PMC9112550

Tested on: Escherichia coli TOP10
Assay: shrunken log2 fold change of peptide-encoding DNA abundance (4.5 h post-induction vs induction); higher = less antimicrobial activity (less host growth inhibition)
Conditions: time post-induction: 4.5 h; library: site-saturation at positions 5, 18, 19, 20
metric: shrunken log2 fold change

[[record]]
chain_sequence = "RRIRTRPPRLPRPRPRPIFDPRP"
endpoint_result = -0.337

[[record]]
chain_sequence = "RRIRKRPPRLPRPRPRPLTWPRP"
endpoint_result = 0.13

[[record]]
chain_sequence = "RRIRGRPPRLPRPRPRPWCRPRP"
endpoint_result = 0.195

[[record]]
chain_sequence = "RRIRVRPPRLPRPRPRPPCNPRP"
endpoint_result = -0.356

[[record]]
chain_sequence = "RRIRCRPPRLPRPRPRPFYTPRP"
endpoint_result = 0.235

[[record]]
chain_sequence = "RRIRRRPPRLPRPRPRPHQQPRP"
endpoint_result = -0.0551

[[record]]
chain_sequence = "RRIRWRPPRLPRPRPRPCETPRP"
endpoint_result = -0.0636

[[record]]
chain_sequence = "RRIRVRPPRLPRPRPRPPNLPRP"
endpoint_result = 0.239

[[record]]
chain_sequence = "RRIRERPPRLPRPRPRPEPFPRP"
endpoint_result = -0.0469


---

Tested on: Escherichia coli TOP10;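 also: peptides expressed intracellularly from a pBAD plasmid library in pooled LB shake-flask culture, induced with 0.3% L-arabinose, DNA abundance read by NGS, three biological replicates, DESeq2 with apeglm shrinkage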
Assay: shrunken log2 fold change of peptide-encoding DNA abundance (4.5 h post-induction vs induction); higher = less antimicrobial activity (less host growth inhibition)
Conditions: time post-induction: 4.5 h; library: site-saturation at positions 5, 18, 19, 20
Rule: Met for shrunken log2 fold change not less than 0.01, Not met for anything less.

[[record]]
chain_sequence = "RRIRYRPPRLPRPRPRPFAGPRP"
answer_label = "Met"

[[record]]
chain_sequence = "RRIRTRPPRLPRPRPRPFYEPRP"
answer_label = "Not met"

[[record]]
chain_sequence = "RRIRCRPPRLPRPRPRPMCPPRP"
answer_label = "Not met"

[[record]]
chain_sequence = "RRIRWRPPRLPRPRPRPDIHPRP"
answer_label = "Not met"

[[record]]
chain_sequence = "RRIRIRPPRLPRPRPRPKGHPRP"
answer_label = "Met"

[[record]]
chain_sequence = "RRIRSRPPRLPRPRPRPIADPRP"
answer_label = "Met"

[[record]]
chain_sequence = "RRIRLRPPRLPRPRPRPSLEPRP"
answer_label = "Not met"

[[record]]
chain_sequence = "RRIRPRPPRLPRPRPRPKMKPRP"
answer_label = "Met"

[[record]]
chain_sequence = "RRIRHRPPRLPRPRPRPDQHPRP"
answer_label = "Not met"

[[record]]
chain_sequence = "RRIRERPPRLPRPRPRPPWMPRP"
answer_label = "Not met"

[[record]]
chain_sequence = "RRIRPRPPRLPRPRPRPYGNPRP"
answer_label = "Not met"

[[record]]
chain_sequence = "RRIRTRPPRLPRPRPRPFYWPRP"
answer_label = "Not met"

[[record]]
chain_sequence = "RRIRGRPPRLPRPRPRPEHAPRP"
answer_label = "Met"

[[record]]
chain_sequence = "RRIRERPPRLPRPRPRPMEPPRP"
answer_label = "Met"

[[record]]
chain_sequence = "RRIRNRPPRLPRPRPRPRKEPRP"
answer_label = "Not met"

[[record]]
chain_sequence = "RRIRDRPPRLPRPRPRPQKMPRP"
answer_label = "Not met"

[[record]]
chain_sequence = "RRIRLRPPRLPRPRPRPAECPRP"
answer_label = "Not met"

[[record]]
chain_sequence = "RRIRHRPPRLPRPRPRPILQPRP"
answer_label = "Not met"

[[record]]
chain_sequence = "RRIRTRPPRLPRPRPRPEARPRP"
answer_label = "Met"

[[record]]
chain_sequence = "RRIRLRPPRLPRPRPRPDQHPRP"
answer_label = "Not met"

[[record]]
chain_sequence = "RRIRMRPPRLPRPRPRPHVNPRP"
answer_label = "Not met"

[[record]]
chain_sequence = "RRIRQRPPRLPRPRPRPNAQPRP"
answer_label = "Met"

[[record]]
chain_sequence = "RRIRQRPPRLPRPRPRPILIPRP"
answer_label = "Not met"

[[record]]
chain_sequence = "RRIRYRPPRLPRPRPRPKPSPRP"
answer_label = "Met"

[[record]]
chain_sequence = "RRIRCRPPRLPRPRPRPCFLPRP"
answer_label = "Not met"

[[record]]
chain_sequence = "RRIRRRPPRLPRPRPRPRNRPRP"
answer_label = "Not met"

